Each entry below carries its recorded logKw.
- protocol.details: Retention factor, logKw of compound in MeOH/0.01 M phosphate buffer at pH 7.4 by RP-HPLC method
- Type: physicochemical
experimental.readout: logKw

>>> numeric_readout("COc1ccc(-c2ccccc2N2CCN(CCCCCC(=O)NCc3ccc(OCCN4CCOCC4)cc3)CC2)cc1")
0.57
>>> numeric_readout("COc1ccc(-c2ccccc2N2CCN(CCCCCC(=O)NCc3ccncc3)CC2)cc1")
0.39
>>> numeric_readout("COc1ccc(-c2ccccc2N2CCN(CCCCCC(=O)NCc3ccc(OCCO)cc3)CC2)cc1")
0.39

----------
- protocol.details: Displacement of [3H]-prazosin from adrenergic alpha 1 receptor in pig brain cortical membranes after 50 mins by microbeta counting analysis
- Type: ADME, cell membranes, Sus scrofa
pKi: −log10 of the molar value.
Cut-off 7 on pKi, inclusive. At or above means true (1); below means false (0).

>>> assigned_label("COc1ccc(-c2cc(F)ccc2N2CCN(CCCCCC(=O)NCc3ccc(C#N)cc3)CC2)cc1")
"true (1)"
>>> assigned_label("O=C(CCCCCN1CCN(c2ccccc2-c2ccccc2)CC1)NCc1ccc(OCCCN2CCOCC2)cc1")
"true (1)"
>>> assigned_label("COc1ccc(-c2ccccc2N2CCN(CCCCCC(=O)NCc3ccc(OCCCN4CCOCC4)cc3)CC2)cc1")
"true (1)"
>>> assigned_label("O=C(CCOCCN1CCN(c2cccnc2-c2ccccc2)CC1)NCc1ccc(C(F)(F)F)cc1")
"false (0)"
>>> assigned_label("COc1ccc(-c2ccccc2N2CCN(CCCCCC(=O)NCc3ccc(OCCO)cc3)CC2)cc1")
"true (1)"
>>> assigned_label("C[C@H]1CN(c2ccccc2-c2ccccc2)CCN1CCCCCC(=O)NCc1ccccc1")
"true (1)"

Origin of the recorded values: ChEMBL document CHEMBL3856221
